Listed below are compounds with IC50 for Receptor-type tyrosine-protein kinase FLT3 (Homo sapiens), each taken from published literature.

Prompt: # lookup: Receptor-type tyrosine-protein kinase FLT3 (Homo sapiens) IC50, key = "CC1(C)CN(c2ccc(-c3oc(-c4ccc(Cl)c5[nH]ccc45)nc3C(N)=O)cc2)CCN1"
Response: 0.97 nM

Prompt: # lookup: Receptor-type tyrosine-protein kinase FLT3 (Homo sapiens) IC50, key = "Oc1ccc(/C=C/c2cc(-c3cc4ccccc4s3)n[nH]2)cc1"
Response: 50 to 500 nM

Prompt: # lookup: Receptor-type tyrosine-protein kinase FLT3 (Homo sapiens) IC50, key = "CCc1nc(C(N)=O)c(Nc2ccc3c(c2)OC[C@@H]2CN(C)CCN32)nc1NC1CCOCC1"
Response: < 1 nM

Prompt: # lookup: Receptor-type tyrosine-protein kinase FLT3 (Homo sapiens) IC50, key = "CCC[C@H](C)Nc1ncc2c(=O)n(C3CCNCC3)cc([C@H]3CC[C@H](O)CC3)c2n1"
Response: 1000 to 10000 nM

Prompt: # lookup: Receptor-type tyrosine-protein kinase FLT3 (Homo sapiens) IC50, key = "Cc1[nH]c(/C=C2\C(=O)Nc3cc(NC(=O)NC(=O)c4ccc(F)cc4)ccc32)c(C)c1CCC(=O)O"
Response: 45.7 nM

Prompt: # lookup: Receptor-type tyrosine-protein kinase FLT3 (Homo sapiens) IC50, key = "CCc1nc2c(N)ncc(-c3cnn(-c4ccc(C5CCCCC5)cc4)c3)c2nc1N[C@@H]1CC[C@H](O)C1"
Response: 10 to 100 nM

Prompt: # lookup: Receptor-type tyrosine-protein kinase FLT3 (Homo sapiens) IC50, key = "C[C@@H](CC(F)(F)F)Nc1ncc2c(O[C@H]3C[C@@H](N4CCOCC4)C3)ncc([C@H]3CC[C@H](O)CC3)c2n1"
Response: 100 to 1000 nM

---

pIC50: −log10 of the molar value.
Listed below are compounds with pIC50 for Receptor-type tyrosine-protein kinase FLT3 (Homo sapiens), each taken from published literature.

{"molecule": "Clc1ccc(CNc2ccc(Cc3c[nH]c4ncncc34)cn2)cc1", "parameter_measured": "pIC50", "result": "≥ 5.00"}

Prompt: # lookup: Receptor-type tyrosine-protein kinase FLT3 (Homo sapiens) pIC50, key = "CCc1nc2c(N)ncc(-c3cnn(-c4ccc(=O)n(C)c4)c3)c2nc1N[C@@H]1CC[C@H](O)C1"
Response: ≥ 8.00

Prompt: # lookup: Receptor-type tyrosine-protein kinase FLT3 (Homo sapiens) pIC50, key = "O=C1Nc2cc(NC(=O)c3cccn(CCO)c3=O)ccc2/C1=C/c1ccc[nH]1"
Response: 6.21

Prompt: # lookup: Receptor-type tyrosine-protein kinase FLT3 (Homo sapiens) pIC50, key = "COC[C@H](C)Nc1ncc2c(-c3ccnc(C)c3)cc([C@H]3CC[C@@](C)(O)CC3)n2n1"
Response: 5.00 to 6.00

---

pIC50: −log10 of the molar value.
Listed below are molecules with pIC50 for Receptor-type tyrosine-protein kinase FLT3 (Homo sapiens, UniProt P36888), each taken from published literature.

Past entries and their recorded results:
{"molecule": "CCCC(C)Nc1ncc2c(=O)n(C3CCN(C(C)C)CC3)cc([C@H]3CC[C@H](O)CC3)c2n1 (some centres unmarked)", "result": "5.00 to 6.00"}
{"molecule": "O=c1c2cc(F)ccc2sc2c(N3CCN(Cc4ccccc4)CC3)nc3ccccc3c12", "result": "< 6.00"}
{"molecule": "COc1ccc(C(=O)NC(=O)Nc2cc3c(cc2F)/C(=C/c2ccc[nH]2)C(=O)N3)cc1", "result": "< 5.00"}
{"molecule": "CNc1cc(Oc2ccc(NC(=O)Nc3ccc(CN4CC[N+]([O-])(C(C)C)CC4)c(C(F)(F)F)c3)cc2)ncn1", "result": 6.03}
{"molecule": "CCCC(C)Nc1ncc2c(OCCN3CCOCC3)ncc([C@H]3CC[C@H](O)CC3)c2n1 (some centres unmarked)", "result": "6.00 to 7.00"}
{"molecule": "COCC(C)Nc1ncc2c(-c3ccc(-c4nnc(C)o4)cc3)cc(C3CCC(O)CC3)n2n1 (centres unmarked)", "result": "6.00 to 7.00"}
{"molecule": "CC1(C(=O)N2CCC(F)(F)CC2)CCCN1c1nc2c(c(Nc3cc(C4CCCC4)[nH]n3)n1)CCC2 (racemic)", "result": 6.10}
{"molecule": "CCc1nc2c(N)ncc(-c3ccc(N4CCC(N5CCN(C)CC5)CC4)c(OC)c3)c2nc1N[C@H]1CCOC1", "result": "≥ 8.00"}
{"molecule": "COC[C@H](C)Nc1ncc2c(-c3ccnc(O[C@@H]4CCNC4)c3)cc([C@H]3CC[C@H](O)CC3)n2n1", "result": "6.00 to 7.00"}
{"molecule": "CN(C)c1ccc(-c2cc3nccnc3c(OC[C@@H]3CN(S(C)(=O)=O)CCO3)n2)cc1", "result": 5.70}

Prompt: # lookup: Receptor-type tyrosine-protein kinase FLT3 (Homo sapiens, UniProt P36888) pIC50, key = "COCCN1C(C)(C)CC(Oc2ncc([C@H]3CC[C@H](O)CC3)c3nc(N[C@@H](C)CF)ncc23)CC1(C)C"
Response: 5.00 to 6.00

Prompt: # lookup: Receptor-type tyrosine-protein kinase FLT3 (Homo sapiens, UniProt P36888) pIC50, key = "CN1CCN(c2cc3[nH]c(-c4c(N)c5sccc5[nH]c4=O)nc3cc2F)CC1"
Response: ≥ 7.30

Prompt: # lookup: Receptor-type tyrosine-protein kinase FLT3 (Homo sapiens, UniProt P36888) pIC50, key = "O=C1Nc2cc(NC(=O)c3cccn(-c4ccccc4)c3=O)ccc2/C1=C/c1ccc[nH]1"
Response: 7.32

Prompt: # lookup: Receptor-type tyrosine-protein kinase FLT3 (Homo sapiens, UniProt P36888) pIC50, key = "Oc1ccc(/C=C/c2cc(-c3ccncc3)n[nH]2)cc1"
Response: 6.30 to 7.30

Prompt: # lookup: Receptor-type tyrosine-protein kinase FLT3 (Homo sapiens, UniProt P36888) pIC50, key = "COC[C@H](C)Nc1ncc2c(-c3cnn(CC(=O)N4CCN(C)CC4)c3)cc([C@H]3CC[C@H](O)CC3)n2n1"
Response: 6.00 to 7.00

Prompt: # lookup: Receptor-type tyrosine-protein kinase FLT3 (Homo sapiens, UniProt P36888) pIC50, key = "CCc1nc2c(N)ncc(-c3cnn(-c4ccnc(Cl)c4)c3)c2nc1N[C@@H]1CC[C@H](O)C1"
Response: ≥ 8.00

Prompt: # lookup: Receptor-type tyrosine-protein kinase FLT3 (Homo sapiens, UniProt P36888) pIC50, key = "CCc1nc2c(N)ncc(-c3cnn(-c4ccncn4)c3)c2nc1N[C@@H]1CC[C@H](O)C1"
Response: ≥ 8.00

---

Listed below are compounds with pIC50 for Receptor-type tyrosine-protein kinase FLT3 (Homo sapiens, UniProt P36888), each taken from published literature.
pIC50: −log10 of the molar value.

Past entries and their recorded results:
{"compound": "CCCS(=O)(=O)Nc1ccc(F)c(C(=O)c2c[nH]c3ncc(-c4ccccc4)cc23)c1F", "target_desc": "Receptor-type tyrosine-protein kinase FLT3 (Homo sapiens, UniProt P36888)", "pIC50": "≥ 5.00"}
{"compound": "Nc1ncnc2c1c(-c1ccc(Oc3ccccc3)cc1)nn2C[C@@H]1SSC[C@@H]1O", "target_desc": "Receptor-type tyrosine-protein kinase FLT3 (Homo sapiens, UniProt P36888)", "pIC50": "7.00 to 8.30"}
{"compound": "CC(C)c1cccc(NC(=O)Nc2ccc(Oc3ncnc4[nH]ncc34)c(F)c2)c1", "target_desc": "Receptor-type tyrosine-protein kinase FLT3 (Homo sapiens, UniProt P36888)", "pIC50": 7.44}
{"compound": "COC[C@H](C)Nc1ncc2c(-c3cncc([S@](C)(=N)=O)c3)cc([C@H]3CC[C@@H](O)CC3)n2n1", "target_desc": "Receptor-type tyrosine-protein kinase FLT3 (Homo sapiens, UniProt P36888)", "pIC50": "< 5.00"}
{"compound": "N#CCNC(=O)c1ccc(-c2nc(Nc3cnn(C4CC4)c3)ncc2Cl)cc1", "target_desc": "Receptor-type tyrosine-protein kinase FLT3 (Homo sapiens, UniProt P36888)", "pIC50": 8.27}

Prompt: Answer with reported pIC50 of Cn1cc(-c2cc(Oc3ccc(NC(=O)N4CCC5(CCCC(F)(F)C5)C4=O)nc3)ccn2)cn1 (centres unmarked)
Response: 5.06

Prompt: Answer with reported pIC50 of "O=c1c2cccc(Cl)c2sc2c(NCCCNCCO)nc3ccccc3c12"
Response: 6.00 to 6.30

Prompt: Answer with reported pIC50 of "COc1cc2nccc(Oc3ccc(NC(=O)C4(C(=O)Nc5ccc(F)c(O)c5)CC4)cc3)c2cc1OC"
Response: > 7.30

---

Listed below are compounds with pIC50 for UniProt P36888, each taken from published literature.
pIC50: −log10 of the molar value.

{"molecule": "COC[C@H](C)Nc1ncc2c(-c3cnn(C[C@@H]4CCC(=O)N4)c3)cc([C@H]3CC[C@H](O)CC3)n2n1", "target_desc": "UniProt P36888", "result": "6.00 to 7.00"}
{"molecule": "COc1ccc(-c2n[nH]c3c2Cc2sc(-c4ccoc4)cc2-3)cc1", "target_desc": "UniProt P36888", "result": "> 7.00"}
{"molecule": "COC[C@H](C)Nc1ncc2c(-c3ccnc(N4CCC5(CC4)COC5)c3)cc([C@H]3CC[C@H](O)CC3)n2n1", "target_desc": "UniProt P36888", "result": "6.00 to 7.00"}
{"molecule": "Clc1cccc(Nc2[nH]nc3c2Cc2sccc2-3)c1", "target_desc": "UniProt P36888", "result": "> 7.00"}
{"molecule": "CCc1nc2c(N)ncc(-c3cnn(-c4cccnc4)c3)c2nc1N[C@@H]1CC[C@H](O)C1", "target_desc": "UniProt P36888", "result": "≥ 8.00"}
{"molecule": "COC[C@H](C)Nc1ncc2c(-c3cnn([C@H]4CCN(C(C)=O)C4)c3)cc([C@H]3CC[C@H](O)CC3)n2n1", "target_desc": "UniProt P36888", "result": "6.00 to 7.00"}

// switching to the query compound
Prompt: # lookup: UniProt P36888 pIC50, key = "CN1CCN(CCCOc2ccc(C#Cc3ccc(NC(=O)Nc4cc(C(C)(C)C)on4)cc3)cc2)CC1"
Response: 7.64
